Tested on: gene editing with dCas9
Procedure Summary: Screen of 322 new SSAP proteins, gene editing activity with dCas9 (Table 5)
Type: cell-based
Settings: normalized
Record form. Attribute: dCas9 with SSAP activity (normalized). Fill in for each entry.
Answers are plain numbers.

Sample records with dCas9 with SSAP activity (normalized):
- Molecule: "SSAP_129: SEQ ID NO: 298; Lacrimispora indolis (protein, listed as Lacrimispora indolis) SDVKQELEKRAAGGGGQSQSVRLTKNMTIVDMVKALEPEIKRALPSILTPERFTRMALSAINNTPKLGECTPMSFIAALMNAAQLGLEPNTPLGQAYLIPYKNKGVLECQFQLGYRGLIDLAYRNERMQSVEAQVVYENDEFSYELGLHPSLIHRPSFDEPGEIRAFYAIFRLDNGGFRFEVMSKSYVDAYAARYSKAFTSDFSPWKSNYEGMAKKTVIKQLLKYAPMKSEFQKAVTMDETIKTELSVDMSEVSNQEVIDRELTEQVA"
  Property Name: "dCas9 with SSAP activity (normalized)"
  Experimental Result: "−0.313"
- Molecule: "SSAP_217: SEQ ID NO: 386; Streptomyces noursei (protein, listed as Streptomyces noursei) TSPIRAAVARRAGDPAALISQYTADFAAVLPSHIKPATFVRLAQGILRRDEKLAQAAANDPGQFMSVLLDAARLGLEPGTEAYYLVPFKGRVQGIVGWQGEIELMYRAGAISSVIVETVREDDVFVWTPGLVDRETPPRWEGPMSYPFHEVEWAGDRGPLRLVYAYAVMKGGATSKVVVLNAQDIERAKKTSQGADSPSSPWRQHEAAMWSKTAVHRLAKYVPTSAEYITAQVRAVRQADALSAPPVEEVVDVELVGDGQEQEARR"
  Property Name: "dCas9 with SSAP activity (normalized)"
  Experimental Result: "−0.839"
- Molecule: "SSAP_15: SEQ ID NO: 184 (protein) AKNELAKGSYLTDLQKLDGNTLRDFVDPKHQASPQELQALLAIVKGRNLNPFTKEVYFIKYGSAPAQIVVSKEAIMKRAEENPDFDGFEAGIVVETKDGAIERLTGTIVPKSATLRGGWCKVYRKDRSHAIEADADFAYYTTSKNLWQKMPALMIRKVAIVSAFREAFSESVGGLYTADEMQRETQAEVRARKMKEAYEEKLYLLTQMEAKSYKKTKSKNENEAKKTKEAEAIETVEEPTQDGNLEW"
  Property Name: "dCas9 with SSAP activity (normalized)"
  Experimental Result: "−2.250"

Next item in the queue.
# return recorded dCas9 with SSAP activity (normalized) for entry SSAP_178: SEQ ID NO: 347; Streptomyces sp. MZ04 (protein, listed as Streptomyces sp.) STNLAARVEARRQNPTTKQPARRGKAAQQPTLVQFVQSMRGEIARALPSHVASPERIARIALTELRRVDHLAECTQESFGGALMTCAALGLEPGGVGGEAYLLPFWNKKVRAYEVTLVIGYQGMVRLFWQHPAAAGLAAHTVHEGDEFDFEYGLEPFLRHKPARTGRGKPTDYYAVAKMANGGSAFVVMNVEDIEAIRHRSKARDAGPWSTDYGLRRHGAQDLHSAVVQVAAEVC −0.626

Where do the numbers come from? From patent US20250034594A1.
